The following compounds are shown together with reported GI50 values.
# Test system: MDA-N
# procedure.summary: NCI tumour cell line growth inhibition, 48 h
Activity calls are given as the source filed them. No stated cut-off is given here; in the data, active = GI50 up to about 1.1 µM and inactive = higher.
reported.endpoint: GI50

>>> print(df.to_string())
                                   compound      measured_result
0  CC1CC(NN)=Nc2ccccc2N1 (stereo unspecified)  > 100 µM (inactive)
1                  O=C(O)CSc1nc2ccccc2[nH]1  > 100 µM (inactive)
2  Cc1ccc(C(=O)N/N=C2/C(=O)c3c4ccccc4cc4cccc2c34)cc1   37.8 µM (inactive)
3    N=C1/C(=C/c2ccc(F)cc2)C(=O)N=C2SC=NN12   83.2 µM (inactive)
4  CCN1CCC(O)(c2ccc(Oc3ccc(C)cc3)cc2)C(C(=O)c2ccc(Oc3ccc(C)cc3)cc2)C1 (stereo unspecified)   10.7 µM (inactive)
5  CC(C)(CO[C@H]1C[C@H]2CC[C@@]1(C)C2(C)C)[N+](=O)[O-]   15.6 µM (inactive)
